Values were extracted from patent US20260000676A1.

target: CRBN/DDB1 (Homo sapiens (Human), UniProt Q96SW2); assay: HTRF binding assay to CRBN/DDB1; conditions: read-out: CRBN HTRF IC50
Sequence (Q96SW2 whole entry): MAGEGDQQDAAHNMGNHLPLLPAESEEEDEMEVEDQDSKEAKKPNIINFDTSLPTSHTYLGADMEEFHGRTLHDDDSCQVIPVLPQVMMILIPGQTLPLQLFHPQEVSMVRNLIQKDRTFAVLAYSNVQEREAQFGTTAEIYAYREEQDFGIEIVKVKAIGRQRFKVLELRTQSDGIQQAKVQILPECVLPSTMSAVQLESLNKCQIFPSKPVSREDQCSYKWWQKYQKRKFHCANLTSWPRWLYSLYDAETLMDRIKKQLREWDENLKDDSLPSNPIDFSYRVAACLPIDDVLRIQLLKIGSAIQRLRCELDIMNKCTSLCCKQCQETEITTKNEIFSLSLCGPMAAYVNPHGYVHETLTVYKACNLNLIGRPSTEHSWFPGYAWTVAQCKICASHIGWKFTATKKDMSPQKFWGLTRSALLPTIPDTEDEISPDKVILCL
Sequence (Q16531 whole entry partner): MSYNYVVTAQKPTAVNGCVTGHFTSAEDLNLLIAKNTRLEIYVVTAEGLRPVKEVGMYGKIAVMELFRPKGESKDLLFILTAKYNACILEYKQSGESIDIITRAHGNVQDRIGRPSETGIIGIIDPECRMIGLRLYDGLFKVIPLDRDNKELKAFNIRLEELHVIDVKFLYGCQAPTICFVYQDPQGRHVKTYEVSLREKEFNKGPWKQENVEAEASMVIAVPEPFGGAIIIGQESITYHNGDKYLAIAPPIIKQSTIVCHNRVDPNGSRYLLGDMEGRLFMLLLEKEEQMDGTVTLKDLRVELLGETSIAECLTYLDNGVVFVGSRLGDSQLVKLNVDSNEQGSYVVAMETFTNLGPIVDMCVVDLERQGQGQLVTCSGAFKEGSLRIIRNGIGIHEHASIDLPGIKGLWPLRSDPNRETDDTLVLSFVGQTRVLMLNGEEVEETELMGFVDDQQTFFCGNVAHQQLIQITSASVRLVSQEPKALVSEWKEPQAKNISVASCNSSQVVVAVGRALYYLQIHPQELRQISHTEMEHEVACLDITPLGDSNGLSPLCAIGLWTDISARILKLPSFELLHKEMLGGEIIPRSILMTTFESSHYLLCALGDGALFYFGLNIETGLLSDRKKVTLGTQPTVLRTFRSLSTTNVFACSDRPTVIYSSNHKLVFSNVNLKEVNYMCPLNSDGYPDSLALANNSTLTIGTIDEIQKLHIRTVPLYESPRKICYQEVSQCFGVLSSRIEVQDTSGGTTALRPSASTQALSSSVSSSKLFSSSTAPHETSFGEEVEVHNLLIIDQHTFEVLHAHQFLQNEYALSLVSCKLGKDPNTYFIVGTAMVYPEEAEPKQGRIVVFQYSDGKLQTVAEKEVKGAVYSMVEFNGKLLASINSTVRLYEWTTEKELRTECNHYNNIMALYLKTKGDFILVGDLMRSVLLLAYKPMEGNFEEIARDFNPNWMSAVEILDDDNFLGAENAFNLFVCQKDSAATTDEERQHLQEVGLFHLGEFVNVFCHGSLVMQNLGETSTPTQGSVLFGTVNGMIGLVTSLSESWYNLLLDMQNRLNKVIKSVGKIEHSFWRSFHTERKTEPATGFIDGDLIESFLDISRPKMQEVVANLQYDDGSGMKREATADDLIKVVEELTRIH
pIC50: −log10 of the molar value. Counter-ions that a name gives are not always drawn.
For each record, write down the corresponding pIC50.

O=C1CCC(N2Cc3c(ccc4c3OC[C@H]3CN(CC5CCN(c6ncc([C@H]7c8ccc(O)cc8OC[C@H]7c7ccccc7)cn6)CC5)CCN43)C2=O)C(=O)N1 (single isomer, unassigned) [Compound A35]    6.30 to 7.30

Dear colleague, could you please provide pIC50 for the molecules listed below?
1. O=C1CCC(Nc2ccc(N3CCN(CC4CC5(CCN(c6ccc([C@@H]7c8ccc(O)cc8OC[C@@H]7c7ccccc7)cc6)CC5)C4)CC3)c(F)c2)C(=O)N1 (stereo partly drawn) [Compound A52]
2. O=C1CCC(N2Cc3c(ccc4c3OC[C@H]3CN(CC5CCN(c6ccc([C@@H]7c8ccc(O)cc8OC[C@@H]7c7ccccc7)cc6)CC5)CCN43)C2=O)C(=O)N1 (single isomer, unassigned) [Compound A8]
3. O=C1CCC(N2C(=O)c3cc4c(cc3C2=O)CN(CC(=O)N2CC3(CCN(c5ccc([C@@H]6c7ccc(O)cc7OC[C@@H]6c6ccccc6)cc5)CC3)C2)C4)C(=O)N1 (single isomer, unassigned) [Compound A26]
4. COc1cc(C(=O)NC2CCC(=O)NC2=O)ncc1N1CCN(CC2CC3(CCN(c4ccc([C@H]5c6ccc(O)cc6OC[C@H]5c5ccccc5)cc4)CC3)C2)CC1 (single isomer, unassigned) [Compound A116]
5. O=C1CCC(N2Cc3cc4c(cc3C2=O)OC[C@@H]2CN(CC3CCC5(CC3)CN(c3ccc([C@@H]6c7ccc(O)cc7OC[C@@H]6c6ccccc6)cc3)C5)CCN42)C(=O)N1 (single isomer, unassigned) [Compound A58]
6. O=C1CC[C@@H](N2Cc3cc4c(cc3C2=O)OC[C@H]2CN(C[C@@H]3COC5(CCN(c6ccc([C@H]7c8ccc(O)cc8OC[C@H]7c7ccccc7)cc6F)CC5)C3)CCN42)C(=O)N1 [Compound A160]
7. COc1cc(N2CCC3(CC2)CC(CN2CCC4(CC2)COc2c4ccc4c2CN(C2CCC(=O)NC2=O)C4=O)C3)c(F)cc1[C@H]1c2ccc(O)cc2OC[C@H]1c1ccccc1 (stereo partly drawn) [Compound A131]

Result:
["6.30 to 7.30", "6.30 to 7.30", "6.30 to 7.30", "5.30 to 6.30", "5.30 to 6.30", "5.30 to 6.30", "> 7.30"]

Dear colleague, could you please provide pIC50 for the molecules listed below?
1. O=C1CCC(Nc2ccc(C3CCN(CC4CCN(c5ccc([C@@H]6c7ccc(O)cc7OC[C@@H]6c6ccccc6)cc5)CC4)CC3)c(F)c2)C(=O)N1 (single isomer, unassigned) [Compound A72]
2. O=C1CC[C@@H](Nc2ccc(C3CCN(C[C@@H]4COC5(CCN(c6ccc([C@H]7c8ccc(O)cc8OC[C@H]7c7ccccc7)cc6)CC5)C4)CC3)c(F)c2)C(=O)N1 (mixture of isomers) [Compound A162]
3. O=C1CCC(N2Cc3cc4c(cc3C2=O)CN(C(=O)CN2CCC3(CC2)CN(c2ccc([C@@H]5c6ccc(O)cc6OC[C@@H]5c5ccccc5)cc2)C3)C4)C(=O)N1 (stereo partly drawn) [Compound A49]
4. O=C1CCC(N2C(=O)c3cc4c(cc3C2=O)CN(C(=O)CN2CCC3(CC2)CCN(c2ccc([C@H]5c6ccc(O)cc6OC[C@H]5c5ccccc5)cc2)CC3)C4)C(=O)N1 (single isomer, unassigned) [Compound A54, formate]
5. O=C1CC[C@@H](N2Cc3cc4c(cc3C2=O)OC[C@H]2CN(CC3COC5(CCN(c6ccc([C@H]7c8ccc(O)cc8OC[C@H]7c7ccccc7)cc6)CC5)C3)CCN42)C(=O)N1 (stereo partly drawn) [Compound A138]

Result:
1. 6.30 to 7.30
2. > 7.30
3. 6.30 to 7.30
4. 5.30 to 6.30
5. 6.30 to 7.30

###

molecular target: ER (Homo sapiens (Human), UniProt P03372); assay: In-cell western (ICW) ER degradation assay in T47D cells; type: cell-based; conditions: ER degradation, 16 hrs
Sequence (P03372 whole entry): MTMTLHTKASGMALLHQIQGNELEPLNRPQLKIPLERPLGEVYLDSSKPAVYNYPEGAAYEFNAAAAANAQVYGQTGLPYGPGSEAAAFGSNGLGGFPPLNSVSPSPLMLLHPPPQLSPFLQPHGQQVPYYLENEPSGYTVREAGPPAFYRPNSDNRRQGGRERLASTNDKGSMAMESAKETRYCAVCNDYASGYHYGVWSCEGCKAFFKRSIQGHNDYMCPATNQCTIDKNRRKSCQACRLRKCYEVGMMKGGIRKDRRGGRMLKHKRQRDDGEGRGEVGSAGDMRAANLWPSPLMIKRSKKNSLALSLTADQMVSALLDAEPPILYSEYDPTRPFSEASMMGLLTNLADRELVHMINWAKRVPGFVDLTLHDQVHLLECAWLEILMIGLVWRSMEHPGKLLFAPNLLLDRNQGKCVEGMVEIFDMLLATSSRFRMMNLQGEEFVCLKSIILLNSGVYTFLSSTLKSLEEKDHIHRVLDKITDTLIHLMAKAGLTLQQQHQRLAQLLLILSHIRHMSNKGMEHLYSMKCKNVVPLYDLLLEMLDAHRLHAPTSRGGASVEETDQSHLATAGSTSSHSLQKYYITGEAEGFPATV
Counter-ions that a name gives are not always drawn.
MEASURE: DC50

Here are 3 compounds together with their reported answers.
O=C1CCC(N2C(=O)c3cc4c(cc3C2=O)CN(C(=O)CN2CCC3(CC2)CCN(c2ccc([C@H]5c6ccc(O)cc6OC[C@H]5c5ccccc5)cc2)CC3)C4)C(=O)N1 (single isomer, unassigned) [Compound A54, formate]    1 to 10 nM
COc1cc(C(=O)NC2CCC(=O)NC2=O)ncc1N1CCN(CC2CCC3(CC2)CN(c2ccc([C@H]4c5ccc(O)cc5OC[C@H]4c4ccccc4)cc2)C3)CC1 (mixture of isomers)    < 1 nM
O=C1CCC(Nc2ccc(C3CCN(CC4CCN(c5ccc([C@@H]6c7ccc(O)cc7OC[C@@H]6c6ccccc6)cc5)CC4)CC3)c(F)c2)C(=O)N1 (single isomer, unassigned)    < 1 nM

Dear colleague, could you please provide DC50 for the compounds listed below?
1. O=C1CCC(Nc2ccc(C34CCN(CC5COC6(CCN(c7ccc([C@H]8c9ccc(O)cc9OC[C@H]8c8ccccc8)cc7F)CC6)C5)CC3C4(F)F)cc2)C(=O)N1 (some centres unmarked)
2. O=C1CCC(N2Cc3cc4c(cc3C2=O)OC[C@@H]2CN(CC3CCC5(CC3)CN(c3ccc([C@@H]6c7ccc(O)cc7OC[C@@H]6c6ccccc6)cc3)C5)CCN42)C(=O)N1 (some centres unmarked) [Compound A63]
3. COc1cc(N2CCC(CN3CCN(c4ccc(C(=O)NC5CCC(=O)NC5=O)nc4)CC3)CC2)c(F)cc1[C@H]1c2ccc(O)cc2OC[C@H]1c1ccccc1 (some centres unmarked) [Compound A110]
4. O=C1CCC(N2Cc3cc4c(cc3C2=O)CN(C(=O)CN2CC3(CCN(c5ccc([C@H]6c7ccc(O)cc7OC[C@H]6c6ccccc6)cc5)CC3)C2)C4)C(=O)N1 (some centres unmarked) [Compound A56, formate]
5. O=C1CCC(N2Cc3c(ccc4c3OCC43CCN(CC4CC5(CCN(c6ccc([C@@H]7c8ccc(O)cc8OC[C@@H]7c7ccccc7)cc6)CC5)C4)CC3)C2=O)C(=O)N1 (some centres unmarked)
6. O=C1CCN(c2ccc(N3CCC4(CC3)CC(CN3CCN(c5ccc([C@H]6c7ccc(O)cc7OC[C@H]6c6ccccc6)cc5)CC3)C4)cc2)C(=O)N1 (single isomer, unassigned)

Result:
1: < 1 nM; 2: > 100 nM; 3: < 1 nM; 4: < 1 nM; 5: < 1 nM; 6: < 1 nM

###

target: CRBN/DDB1 (Homo sapiens (Human), UniProt Q96SW2); test: HTRF binding assay to CRBN/DDB1; conditions: read-out: CRBN HTRF IC50
pIC50: −log10 of the molar value.
MEASURE: pIC50

Here are 8 compounds together with their reported answers.
O=C1CC[C@@H](Nc2ccc(C3CCN(C[C@H]4COC5(CCN(c6ccc([C@H]7c8ccc(O)cc8OC[C@H]7c7ccccc7)cc6)CC5)C4)CC3)c(F)c2)C(=O)N1 (single isomer, unassigned) [Compound A164]    > 7.30
COc1cc(N2CCC(CN3CCN(c4ccc(C(=O)NC5CCC(=O)NC5=O)nc4)CC3)CC2)c(F)cc1[C@H]1c2ccc(O)cc2OC[C@H]1c1ccccc1 (stereo partly drawn) [Compound A110]    < 5.30
O=C1CCC(N2Cc3c(ccc4c3OC[C@@H]3CN(CC5CCN(c6ccc([C@@H]7c8ccc(O)cc8OC[C@@H]7c7ccccc7)cc6)CC5)CCN43)C2=O)C(=O)N1 (single isomer, unassigned) [Compound A7]    6.30 to 7.30
COc1cc(N2CCC(CN3CCN4c5ccc6c(c5OC[C@H]4C3)CN(C3CCC(=O)NC3=O)C6=O)CC2)c(F)cc1[C@H]1c2ccc(O)cc2OC[C@H]1c1ccccc1 (stereo partly drawn) [Compound A105]    > 7.30
COc1cccc([C@@H]2COc3cc(O)ccc3[C@@H]2c2ccc(N3CCC(CN4CCN5c6ccc7c(c6OC[C@H]5C4)CN(C4CCC(=O)NC4=O)C7=O)CC3)cc2)c1 (single isomer, unassigned) [Compound A34]    6.30 to 7.30
O=C1CC[C@@H](NC(=O)c2ccc(N3CCN(CC4COC5(CCN(c6ccc([C@H]7c8ccc(O)cc8OC[C@H]7c7ccccc7)cc6)CC5)C4)CC3)cn2)C(=O)N1 (single isomer, unassigned) [Compound A145]    < 5.30
O=C1CCC(N2Cc3c(ccc4c3OC[C@@H]3CN(CC5CCN(c6ncc([C@@H]7c8ccc(O)cc8OC[C@@H]7c7ccccc7)cn6)CC5)CCN43)C2=O)C(=O)N1 (single isomer, unassigned) [Compound A20]    > 7.30
O=C1CCC(N2Cc3c(ccc4c3OCC43CCN(CC4CCC5(CC4)CN(c4ccc([C@@H]6c7ccc(O)cc7OC[C@@H]6c6ccccc6)cc4)C5)CC3)C2=O)C(=O)N1 (stereo partly drawn) [Compound A114]    > 7.30

Turning now to a further record.
The compound O=C1CCC(N2Cc3cc4c(cc3C2=O)CN(C(=O)CN2CCC3(CC2)CCN(c2ccc([C@@H]5c6ccc(O)cc6OC[C@@H]5c5ccccc5)cc2)CC3)C4)C(=O)N1 (single isomer, unassigned) [Compound A42] showed pIC50 equal to 6.30 to 7.30
